Each entry below carries its recorded MFI.
- experimental-target: T1, human TMEM106B (human, UniProt Q9NUM4 2-274)
- T1 construct: Full-length, on transiently transfected HEK293 cells, or natively expressed on HeLa, U251 and A549 cells; also called huTMEM106B; huTMEM
- protocol-notes: FACS A549, 1 ug/ml
reported-property: MFI

{"binder": "anti-TMEM106B antibody TM-18 (antibody, V domains shown) VH: EVRLQQSGPELVKPGASVKISCKTSGYTFTDYYMNWVKQSHGKSLEWIVNINPNNGDAFYNQKFKGKATLTVDKSSNTAYLDLRSLTSEDSAVYYCAREGQLRLRRVYAMDYWGQGTSVTVSS VL: DIVLAQSPASLAVSLGQRATISCRASKSVSISVYTYVHWYQQKPGQPPKLLIYLASNLESGVPARFSGSGSGTDFTLNIHPVEEEDAATYYCQHSRELPYTFGGGTKLEIK", "obs-value": 2620}
{"binder": "anti-TMEM106B antibody TM-4 (antibody, V domains shown) VH: EVQVQQSGPVLVKPGASVKMSCKASGYTFTDYYMNWVKQSHGKNLEWIGVINPYNGGTSYHQKFKGKATLTVDKSSSTAYMELNSLTSEDSAVYYCARAATVVAGFDYWGQGTTLTVSS VL: QAVVTQESALTTSPGETVTLTCRSSTGAVTTSNYANWVQEKPDHLFTGLIGGTNNRAPGVPARFSGSLIGDKAALTITGAQTEDEAIYFCVLWYSNHLVFGGGTKLTVL", "obs-value": 373}
{"binder": "anti-TMEM106B antibody TM-27 (antibody, V domains shown) VH: QVQLQQSGAELVRPGTSVKVSCKASGYALTNYLIEWVKQRPGQGLEWIGVINPGSGSTKYNEKFKGKATLTADKSSSTAYMQLSSLTSEDSAVYFCARIIYDHDWYFDVWGTGTTVTVSS VL: QIVLTQSPAIMSASPGEKVTISCSASSSISYMYWYQQKPGSSPKPWIYRTSTLASGVPARFSGSGSGTSYSLTISSMEAEDAATYYCQQYHSYPRTFGGGTKLEIK", "obs-value": 431}
